Assayed System: Protein kinase C eta type (Homo sapiens, UniProt P24723)
Sequence (P24723 whole entry): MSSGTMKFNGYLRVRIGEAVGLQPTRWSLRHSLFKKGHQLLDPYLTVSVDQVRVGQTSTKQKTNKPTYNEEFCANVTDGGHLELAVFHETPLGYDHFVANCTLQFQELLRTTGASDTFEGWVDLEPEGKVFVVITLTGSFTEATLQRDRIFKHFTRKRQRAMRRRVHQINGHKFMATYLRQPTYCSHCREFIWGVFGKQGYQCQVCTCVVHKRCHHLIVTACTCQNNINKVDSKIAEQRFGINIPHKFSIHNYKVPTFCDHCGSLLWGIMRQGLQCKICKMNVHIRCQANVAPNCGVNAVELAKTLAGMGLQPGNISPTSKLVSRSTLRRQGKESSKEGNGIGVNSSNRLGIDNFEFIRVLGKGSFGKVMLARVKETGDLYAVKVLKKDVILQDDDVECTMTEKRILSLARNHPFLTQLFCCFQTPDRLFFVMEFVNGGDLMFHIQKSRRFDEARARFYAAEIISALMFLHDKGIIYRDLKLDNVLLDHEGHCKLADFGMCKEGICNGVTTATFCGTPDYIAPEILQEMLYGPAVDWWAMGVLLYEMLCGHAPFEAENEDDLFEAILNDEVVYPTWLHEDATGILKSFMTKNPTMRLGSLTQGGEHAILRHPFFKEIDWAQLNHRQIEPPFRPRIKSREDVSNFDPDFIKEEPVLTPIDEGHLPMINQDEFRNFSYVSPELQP
Assay Explanation: Inhibition of Protein kinase C eta expressed in Sf-9 cells
Metric: IC50 (nM)

Examples with their reported IC50 follow.
CCOC(=O)c1cccc(O)c1C(=O)c1c(O)cc(C(=O)O[C@@H]2CCC[C@H]2NC(=O)c2ccc(O)cc2)cc1O | 52
COC(=O)c1cccc(O)c1C(=O)c1c(O)cc(C(=O)O[C@@H]2CCC[C@H]2NC(=O)c2ccc(O)cc2)cc1O (stereo in doubt; 8 (+)) | 400
CC(C)(C)C(=O)OCOC(=O)c1cccc(O)c1C(=O)c1c(O)cc(C(=O)O[C@@H]2CNC[C@H]2NC(=O)c2ccc(O)cc2)cc1O | 4

[a] CC(=O)OCOC(=O)c1cccc(O)c1C(=O)c1c(O)cc(C(=O)O[C@@H]2CNC[C@H]2NC(=O)c2ccc(O)cc2)cc1O
[b] O=C(N[C@@H]1CNC[C@H]1OC(=O)c1cc(O)c(C(=O)c2c(O)cccc2C(=O)OCC2CCCCC2)c(O)c1)c1ccc(O)cc1
Sort a and b by IC50 descending and give the first. Identify your pick by its label.
b

[a] COC(=O)c1cccc(O)c1C(=O)c1c(O)cc(C(=O)O[C@@H]2CCC[C@H]2NC(=O)c2ccc(O)cc2)cc1O (racemic)
[b] CCOC(=O)c1cccc(O)c1C(=O)c1c(O)cc(C(=O)O[C@@H]2CNC[C@H]2NC(=O)c2ccc(O)cc2)cc1O
[c] COC(=O)c1cccc(O)c1C(=O)c1c(O)cc(C(=O)O[C@@H]2CCC[C@H]2NC(=O)c2ccc(O)cc2)cc1O (stereo in doubt; 8 (-))
Arrange the 3 compounds by rising IC50, starting with the smallest. Labels, ranked as asked.
c, b, a

[a] CCCCOC(=O)c1cccc(O)c1C(=O)c1c(O)cc(C(=O)O[C@@H]2CNC[C@H]2NC(=O)c2ccc(O)cc2)cc1O
[b] COC(=O)c1cccc(O)c1C(=O)c1c(O)cc(C(=O)O[C@@H]2CNC[C@H]2NC(=O)c2ccc(O)cc2)cc1O
[c] CC(C)OC(=O)c1cccc(O)c1C(=O)c1c(O)cc(C(=O)O[C@@H]2CCC[C@H]2NC(=O)c2ccc(O)cc2)cc1O
Arrange the 3 compounds by rising IC50, starting with the smallest. Labels, ranked as asked.
b, a, c
